biological target: hCB1 receptor (Homo sapiens); experiment: Agonist-stimulated [35S]GTPγS binding, hCB1 membranes; settings: read-out: [35S]GTPγS Turnover CB1 Emax
The molecules listed here are annotated with their Emax.
metric-name: Emax (%)

{"columns": ["molecule", "metric-name", "unit-string", "reported"],
 "data": [
  ["CCc1ccc(C(=O)c2cn(CCCCCF)c3ccccc23)c2ccccc12 [EAM-2201]", "Emax", "%", 270],
  ["Cc1ccc(C(=O)c2cn(CCCCCF)c3ccccc23)c2ccccc12 [MAM-2201]", "Emax", "%", 310],
  ["CCCCCn1cc(C(=O)c2ccccc2I)c2ccccc21 [AM-679]", "Emax", "%", 132],
  ["CCCCCn1cc(C(=O)c2ccc(CC)c3ccccc23)c2ccccc21 [JWH-210]", "Emax", "%", 287],
  ["N#CCCCCn1cc(C(=O)c2cccc3ccccc23)c2ccccc21 [AM-2232]", "Emax", "%", 204],
  ["CN1CCCCC1Cn1cc(C(=O)c2ccccc2I)c2ccccc21 (stereo not shown) [AM-2233]", "Emax", "%", 144],
  ["CN1CCCC[C@@H]1Cn1cc(C(=O)c2cccc3ccccc23)c2ccccc21 [AM-1220]", "Emax", "%", 132]
]}

* * *

target: hCB1 receptor (Homo sapiens, UniProt P21554); assay: Agonist-stimulated [35S]GTPγS binding, hCB1 membranes; details: read-out: [35S]GTPγS Turnover CB1 EC50; hCB1 membranes; value (SEM)
Sequence (P21554 whole entry): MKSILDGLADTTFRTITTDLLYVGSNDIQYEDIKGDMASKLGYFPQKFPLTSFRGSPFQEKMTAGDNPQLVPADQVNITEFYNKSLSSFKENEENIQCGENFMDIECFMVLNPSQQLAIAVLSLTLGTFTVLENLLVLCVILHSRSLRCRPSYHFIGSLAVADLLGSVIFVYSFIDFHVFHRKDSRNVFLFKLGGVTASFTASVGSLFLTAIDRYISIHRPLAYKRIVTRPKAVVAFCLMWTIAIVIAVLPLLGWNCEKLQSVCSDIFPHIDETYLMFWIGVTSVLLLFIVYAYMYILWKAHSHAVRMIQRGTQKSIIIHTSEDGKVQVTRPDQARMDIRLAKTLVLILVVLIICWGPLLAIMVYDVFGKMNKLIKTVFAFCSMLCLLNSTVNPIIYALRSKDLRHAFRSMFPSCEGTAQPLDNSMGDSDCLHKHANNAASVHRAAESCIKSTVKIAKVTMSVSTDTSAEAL
metric-name: EC50 (nM)

{"columns": ["molecule", "unit-string", "reported"],
 "data": [
  ["CCCCCn1cc(C(=O)Cc2ccccc2C)c2ccccc21 [JWH-251]", "nM", 918]
]}

* * *

biological target: UniProtKB P34972; assay: Agonist-stimulated [35S]GTPγS binding, hCB2 membranes; settings: read-out: [35S]GTPγS Turnover CB2 Emax
Sequence (P34972 whole entry): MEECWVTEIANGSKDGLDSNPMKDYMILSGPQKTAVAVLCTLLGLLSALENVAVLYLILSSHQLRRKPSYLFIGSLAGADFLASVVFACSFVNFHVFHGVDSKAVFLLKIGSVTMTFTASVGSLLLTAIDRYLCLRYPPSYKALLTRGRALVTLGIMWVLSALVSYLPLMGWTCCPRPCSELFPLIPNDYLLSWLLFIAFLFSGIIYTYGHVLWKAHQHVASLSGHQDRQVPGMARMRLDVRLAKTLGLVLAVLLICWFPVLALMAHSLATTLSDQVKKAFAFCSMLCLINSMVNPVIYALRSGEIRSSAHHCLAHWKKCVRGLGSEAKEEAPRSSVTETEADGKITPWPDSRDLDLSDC

{"columns": ["compound", "assayed-target", "Emax / %"],
 "data": [
  ["CCCCCn1cc(C(=O)c2ccc(CC)c3ccccc23)c2ccccc21", "UniProtKB P34972", 43.6],
  ["CCc1ccc(C(=O)c2cn(CCCCCF)c3ccccc23)c2ccccc12", "UniProtKB P34972", 40.2],
  ["CN1CCCCC1Cn1cc(C(=O)c2ccccc2I)c2ccccc21 (stereo not drawn)", "UniProtKB P34972", 21],
  ["CCCCCn1cc(C(=O)c2ccccc2I)c2ccccc21", "UniProtKB P34972", 31.1],
  ["N#CCCCCn1cc(C(=O)c2cccc3ccccc23)c2ccccc21", "UniProtKB P34972", 31.3],
  ["Cc1ccc(C(=O)c2cn(CCCCCF)c3ccccc23)c2ccccc12", "UniProtKB P34972", 23.2]
]}

Origin of the recorded values: paper PMC5934329
